System: male Sprague-Dawley rats
Protocol Description: In vivo screen APCC: blood cholesterol in rats fed PCC diet overnight
Cond: blood cholesterol versus vehicle (CMC/Tween); dosed at 4 PM, PCC diet with 1 % or 0.5% cholic acid overnight, sacrificed at 8 AM; dose not given
Each entry below carries its recorded % Change (mg/dl).
Give your result in % as a bare value.

Answered cases to consult:
{"Smiles": "CC(C)c1cccc(C(C)C)c1NC(=O)CC(=O)N(C(C)C)C(c1ccccc1)c1ccccc1", "Result Unit": "%", "Numeric Value": -41}
{"Smiles": "CC(C)c1cccc(C(C)C)c1NC(=O)CC(=O)NC(c1ccccc1)c1ccccc1", "Result Unit": "%", "Numeric Value": -20}

# ---- query compound ----
Problem: Look up % Change (mg/dl) of CC(C)c1cccc(C(C)C)c1NC(=O)CC(=O)N(Cc1ccccc1)Cc1ccccc1 and report it.
Result: -42

----------
System Under Test: acyl-CoA: cholesterol acyltransferase (ACAT)
Protocol Description: In vitro ACAT inhibition: radiolabeled cholesterol oleate formed from radiolabeled oleic acid in rabbit intestinal microsomes
Cond: tissue preparation containing rabbit intestinal microsomes; concentration required to inhibit the activity of the enzyme by 50%
Outcome Measure: pIC50
# reply with the number alone; pIC50 is -log10 of concentration in mol/L

Answered cases to consult:
{"Smiles": "CC(C)c1cccc(C(C)C)c1NC(=O)CC(=O)N(C(C)C)C(c1ccccc1)c1ccccc1", "pIC50": 7.70}
{"Smiles": "CC(C)c1cccc(C(C)C)c1NC(=O)CC(=O)N(Cc1ccccc1)Cc1ccccc1", "pIC50": 7.89}
{"Smiles": "CC(C)c1cccc(C(C)C)c1NC(=O)CC(=O)NCC1(c2ccccc2)CCCC1", "pIC50": 6.00}
{"Smiles": "CC(C)c1cccc(C(C)C)c1NC(=O)CC(=O)NCC(c1ccccc1)c1ccccc1", "pIC50": 6.11}

# ---- query compound ----
Problem: Look up pIC50 of CC(C)c1cccc(C(C)C)c1NC(=O)CC(=O)NC(c1ccccc1)c1ccccc1 and report it.
Result: 6.31
